- protocol-description: chemical genetic growth profiling, strain panel (AID 1159580);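 also: tested at 20 µM; growth read once vehicle control cultures reached saturation at 30 °C; 1 = growth at the plate median or of vehicle wells; lower values mean less growth of the strain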
- test-parameters: S. cerevisiae deletion strains, growth OD, locus YGL086W, strain mad1
About 2,000 (36%) of roughly 5,500 compounds were called active. Not shown: some 18% with an inconclusive outcome. Rule as the data show it: active = normalized growth mostly below about 0.91 (no sharp cut-off); inconclusive = no clear call, values can overlap the other calls; inactive = mostly above about 0.92. Some of the results follow. Where a SMILES comes first, the peptide text is derived from it. Bridges are numbered along the chain shown (N, C = ends). [ ]: non-standard residue; d: D form. The star is where a group is joined. Octanoyl(6-Me) = CCC(C)CCCCC(=O)*; Dab = NCC[CH](N)C(=O)O
Outcomes: 1 (yes) = active, 0 (no) = inactive

# compound, assigned-label
data = [
    ("CC(N)C(O)c1ccc(O)c(O)c1 (configuration not stated)", "0 (no)"),
    ("COc1cc(NS(=O)(=O)c2ccc(N)cc2)ncn1", "0 (no)"),
    ("CN1CCN(CCC=C2c3ccccc3Sc3ccc(S(=O)(=O)N(C)C)cc32)CC1", "0 (no)"),
    ("CCC(C)CCCCC(=O)NC(CCN)C(=O)NC(C(=O)NC(CCN)C(=O)NC1CCNC(=O)C(C(C)O)NC(=O)C(CCN)NC(=O)C(CCN)NC(=O)C(CC(C)C)NC(=O)C(Cc2ccccc2)NC(=O)C(CCN)NC1=O)C(C)O (configuration not stated) ({Octanoyl(6-Me)}-[Dab]T[Dab][Dab][Dab]FL[Dab][Dab]T; lactam 4-C; configuration not given here)", "0 (no)"),
    ("Cc1onc(-c2ccccc2)c1C(=O)NC1C(=O)N2[C@@H]1SC(C)(C)[C@@H]2C(=O)O (some centres not stated)", "0 (no)"),
    ("CNC(Cc1c[nH]c2ccccc12)C(=O)O (configuration not stated)", "0 (no)"),
    ("CC(=O)O[C@H]1CC[C@]2(C)C3CC[C@@]4(C)C(CC5O[C@@]6(CCC(C)CO6)[C@@H](C)C54)C3CC[C@H]2C1 (some centres not stated)", "0 (no)"),
    ("CC1=CC(=O)C2=C(C)CC(O)C3C(C)C(=O)OC3C12 (configuration not stated)", "0 (no)"),
    ("CC1(C)S[C@@H]2[C@H](NC(=O)Cc3ccccc3)C(=O)N2[C@H]1C(=O)O", "0 (no)"),
    ("Cc1onc(-c2c(Cl)cccc2Cl)c1C(=O)N[C@@H]1C(=O)N2[C@@H]1SC(C)(C)[C@@H]2C(=O)O", "0 (no)"),
    ("CC[C@@H](CO)NC(=O)[C@@H]1C=C2c3cccc4[nH]cc(c34)C[C@H]2N(C)C1", "0 (no)"),
    ("CC(=O)[O][Hg][c]1ccccc1", "1 (yes)"),
    ("CC(=O)O[C@H]1CC[C@]2(C)C3CC(=O)[C@]4(C)C(C(C)=O)=CCC4C3CC[C@H]2C1 (some centres not stated)", "0 (no)"),
    ("CC(=O)OC1CCC2(C)C3CC(=O)C4(C)C(CC5OC6(CCC(C)CO6)[C@@H](C)C54)C3CC[C@H]2C1 (some centres not stated)", "0 (no)"),
    ("CO[C@H]1C[C@H](O[C@H]2[C@H](C)[C@@H](OC3O[C@H](C)C[C@H](N(C)C)[C@H]3OC(C)=O)[C@@H](C)C[C@]3(CO3)C(=O)[C@H](C)[C@@H](OC(C)=O)[C@@H](C)[C@@H](C)OC(=O)[C@@H]2C)O[C@@H](C)[C@@H]1OC(C)=O (some centres not stated)", "0 (no)"),
    ("COc1ccc2c(c1)[C@]13CCCC[C@H]1[C@H](C2)N(C)CC3", "0 (no)"),
    ("O=c1oc2c(O)c(O)cc3c(=O)oc4c(O)c(O)cc1c4c23", "1 (yes)"),
]
